# Organism: Homo sapiens
# assay method text: Inhibition of Anti-PLA2R IgG interaction with human recombinant PLA2 receptor at 10 uM by SPR analysis relative to control
Provide the reported inhibition of each item.

compound	inhibition
CO[C@H]1C[C@H](O[C@H]2[C@H](C)O[C@@H](O[C@@H]3/C(C)=C/C[C@@H]4C[C@@H](C[C@]5(C=C[C@H](C)[C@@H](C6CCCCC6)O5)O4)OC(=O)[C@@H]4C=C(C)[C@@H](O)[C@H]5OC/C(=C\C=C\[C@@H]3C)[C@]54O)C[C@@H]2OC)O[C@@H](C)[C@@H]1O	12%
COc1cc(O)c2c(=O)c3cc(CC=C(C)C)c(O)c(O)c3oc2c1CC=C(C)C	10.7%
COc1c(O)c2c(=O)cc(OC)c3c4c(OC)cc(O)c5c(=O)c(OC)c6c(c(c1[C@H](C(C)=O)[C@](C)(O)C6)c23)c54	11.9%
CC(C)C[C@@H](c1c(O)c(C=O)c(O)c(C=O)c1O)[C@@H]1CC[C@@](C)(O)[C@@H]2[C@@H]3[C@H](CC[C@]21C)C3(C)C	12.6%

Could you now look at the following compound, please?
Q: Given the compound CC(C)C[C@H](c1c(O)c(C=O)c(O)c(C=O)c1O)[C@@]1(C)CC[C@@H]2[C@@H]1[C@H]1[C@@H](CC[C@@]2(C)O)C1(C)C [MACROCARPAL B] , what is its reported inhibition?
Result: 19%
